For each of the molecules below, state its absorption maximum.
Assay: solvent given as SMILES
Conditions: in CCCCC
The answer is to be given in nm; state only the numeric part.

Query: So what does the record say about absorption maximum for Oc1cccc(/N=C/c2ccccc2Oc2ccccc2)c1 ?
Response: 318

Query: So what does the record say about absorption maximum for CC(C)(C)c1ccc2c(c1)c1cc(C(C)(C)C)ccc1n2-c1ccc(C#Cc2cccc(C#Cc3ccc(-n4c5ccc(C(C)(C)C)cc5c5cc(C(C)(C)C)ccc54)cc3)c2)cc1 ?
Response: 340

Query: So what does the record say about absorption maximum for CC(C)(C)c1ccc2c(c1)c1cc(C(C)(C)C)ccc1n2-c1ccc(C#Cc2ccccc2)cc1 ?
Response: 329

Query: So what does the record say about absorption maximum for COC(=O)C(Cc1ccc2oc(-c3ccc4c(c3)c3ccccc3n4-c3ccccc3)nc2c1)NC(=O)OC(C)(C)C (centres undefined) ?
Response: 324.5

Ref: the Deep4Chem optical property database
